B1: H2-Kb / B7 (parent)
chain 1: GQQVQQSPTSLVLQEGENAELQCNFSTSLNSMQWFYQRPGGSLVSVFYNPSGTKQSGRLTSTTVIKERRSSLHISSSQITDSGTYLCAMERDMGYKLTFGTGTSLLVDP
chain 2: EAAVTQSPRNKVAVTGGKVTLSCNQTNNHNNMYWYRQDTGHGLRLIHYSYGAGSTEKGDIPDGYKASRPSQENFSLILELATPSQTSVYFCASGDPGDQDTQYFGPGTRLLVL
chain 3: not shown
chain 4: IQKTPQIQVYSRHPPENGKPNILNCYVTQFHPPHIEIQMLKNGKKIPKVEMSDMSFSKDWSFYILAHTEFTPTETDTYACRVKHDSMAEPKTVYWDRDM
chain 5: SIINFEKL

variants of: B1; experiment: % of reporter cells activated (NFAT-GFP), raw; conditions: with B7; scale: % of reporter cells activated; further: test concentration or dose not given here
Hi! Just check whether ratio to parent is below 1. Below gives Met, equal or above gives Not met.

Look over these answered cases.
chain 5 F5W    Not met
chain 5 N4K    Not met
chain 5 N4I    Not met

Problem: # check: ratio to parent < 1 for chain 5 S1V
Result: Not met

Problem: Quick check: ratio to parent of chain 5 I2T under 1?
Result: Not met

Problem: Please let me know if chain 5 F5H shows ratio to parent below 1.
Result: Not met

Problem: Please indicate whether the reported ratio to parent of chain 5 K7G is strictly below 1.
Result: Met

Problem: Determine if chain 5 L8W shows ratio to parent strictly lower than 1.
Result: Met
